- Test Protocol: self-splicing fitness, log relative to wild type (ln ratio); higher = more splicing; Tetrahymena group I intron in knt gene, E. coli kanamycin selection, DiMSum; sequences stand for … in CUCUCU…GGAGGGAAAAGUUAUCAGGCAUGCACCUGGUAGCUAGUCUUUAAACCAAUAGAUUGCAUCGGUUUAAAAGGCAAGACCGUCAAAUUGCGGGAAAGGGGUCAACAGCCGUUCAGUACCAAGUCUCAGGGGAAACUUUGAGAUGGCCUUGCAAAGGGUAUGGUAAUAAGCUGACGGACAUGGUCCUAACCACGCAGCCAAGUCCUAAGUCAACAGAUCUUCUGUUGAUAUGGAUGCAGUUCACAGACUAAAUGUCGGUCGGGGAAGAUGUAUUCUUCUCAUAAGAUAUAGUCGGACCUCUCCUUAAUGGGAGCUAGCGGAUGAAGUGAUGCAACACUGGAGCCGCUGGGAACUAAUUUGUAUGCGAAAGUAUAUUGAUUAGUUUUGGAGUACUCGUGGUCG;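 note: selection with 25 µg/mL kanamycin versus none on LB agar overnight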
- Condition Description: 30 °C
Property: self-splicing fitness (ln)
Please reply with the number alone, leaving off any unit.

The cases that follow already have their self-splicing fitness (ln) on record.
Residue Codes: AUAUAGCAAUAUUACGUUGA
Property: self-splicing fitness (ln)
Quantitative Result: -2.63
//
Residue Codes: UAGAAGCAAUAUUACGUACU
Property: self-splicing fitness (ln)
Quantitative Result: -1.22
//
Residue Codes: AAGGAGCAAUAUUACGGUGU
Property: self-splicing fitness (ln)
Quantitative Result: -3.44
//
Residue Codes: CUCGAGCAAUAUUACGCGCU
Property: self-splicing fitness (ln)
Quantitative Result: -3.66
//
Residue Codes: ACUGAGCAAUAUUACGGCAG
Property: self-splicing fitness (ln)
Quantitative Result: -1.75
//
Residue Codes: AUCAAGCAAUAUUACGCAAA
Property: self-splicing fitness (ln)
Quantitative Result: -2.96

Tell me its self-splicing fitness (ln) given CAGCAGCAAUAUUACGUUCA as the entry. -2.17

Tell me its self-splicing fitness (ln) given CUAAAGCAAUAUUACGUAUC as the entry. -3.77

Tell me its self-splicing fitness (ln) given UAAGAGCAAUAUUACGCGCU as the entry. -3.17

Tell me its self-splicing fitness (ln) given ACCUAGCAAUAUUACGUCAG as the entry. -3.93

Tell me its self-splicing fitness (ln) given AGCGAGCAAUAUUACGAACU as the entry. -2.3

Tell me its self-splicing fitness (ln) given GCGGAGCAAUAUUACGAGCU as the entry. -2.02

Tell me its self-splicing fitness (ln) given GUGCAGCAAUAUUACGACCC as the entry. -0.76

Tell me its self-splicing fitness (ln) given GACAAGCAAUAUUACGUGUA as the entry. -1.56

Tell me its self-splicing fitness (ln) given ACCGAGCAAUAUUACGGGUU as the entry. -2.85

Tell me its self-splicing fitness (ln) given GACUAGCAAUAUUACGCCGA as the entry. -0.898

* * *

- Test Protocol: self-splicing fitness, log relative to wild type (ln ratio); higher = more splicing; Tetrahymena group I intron in knt gene, E. coli kanamycin selection, DiMSum; sequences stand for … in CUCUCU…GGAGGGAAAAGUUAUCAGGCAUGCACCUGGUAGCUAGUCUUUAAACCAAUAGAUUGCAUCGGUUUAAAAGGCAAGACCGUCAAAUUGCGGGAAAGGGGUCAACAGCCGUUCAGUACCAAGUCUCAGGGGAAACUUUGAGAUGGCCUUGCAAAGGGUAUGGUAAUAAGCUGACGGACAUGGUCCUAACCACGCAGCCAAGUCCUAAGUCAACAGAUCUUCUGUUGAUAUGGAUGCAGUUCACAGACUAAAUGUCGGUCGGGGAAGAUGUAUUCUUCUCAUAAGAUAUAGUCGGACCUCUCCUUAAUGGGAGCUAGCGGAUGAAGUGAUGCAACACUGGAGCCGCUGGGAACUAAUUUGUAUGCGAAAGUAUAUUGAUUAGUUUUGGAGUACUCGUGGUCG
- Condition Description: 30 °C
# reported self-splicing fitness (ln); entries follow
Please reply with the number alone, leaving off any unit.

Residue Codes: UGUAAGCAAUAUUACGAGGG
self-splicing fitness (ln): -3.68

Tell me its self-splicing fitness (ln) given UGCGAGCAAUAUUACGGCCU as the entry. -1.85

Tell me its self-splicing fitness (ln) given CAGUAGCAAUAUUACGCGGC as the entry. -2.92

Tell me its self-splicing fitness (ln) given GGCUAGCAAUAUUACGUUUA as the entry. -0.381

Tell me its self-splicing fitness (ln) given AGAUAGCAAUAUUACGCUUU as the entry. -0.847

Tell me its self-splicing fitness (ln) given AGGCAGCAAUAUUACGGAAA as the entry. -2.91

Tell me its self-splicing fitness (ln) given AGACAGCAAUAUUACGCUAU as the entry. -3.31

* * *

# reported self-splicing fitness (ln); entries follow
- Test Protocol: self-splicing fitness, log relative to wild type (ln ratio); higher = more splicing; Tetrahymena group I intron in knt gene, E. coli kanamycin selection, DiMSum; sequences stand for … in CUCUCU…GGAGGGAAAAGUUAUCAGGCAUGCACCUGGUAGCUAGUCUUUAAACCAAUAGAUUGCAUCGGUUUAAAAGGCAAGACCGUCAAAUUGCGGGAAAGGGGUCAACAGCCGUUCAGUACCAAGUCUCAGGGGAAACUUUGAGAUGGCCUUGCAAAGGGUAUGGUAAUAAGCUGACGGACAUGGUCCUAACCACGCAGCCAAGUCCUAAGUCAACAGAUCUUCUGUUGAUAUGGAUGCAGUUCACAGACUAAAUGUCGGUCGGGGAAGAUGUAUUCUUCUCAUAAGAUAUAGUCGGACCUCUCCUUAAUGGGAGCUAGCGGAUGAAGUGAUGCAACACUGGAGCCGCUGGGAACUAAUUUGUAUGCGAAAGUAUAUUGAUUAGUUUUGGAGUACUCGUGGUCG
- Condition Description: 30 °C
Please reply with the number alone, leaving off any unit.

Residue Codes: GCUAAGCAAUAUUACGGGUA
Quantitative Result: -1.32

Tell me its self-splicing fitness (ln) given CGGCAGCAAUAUUACGAGCA as the entry. -2.99

Tell me its self-splicing fitness (ln) given CAGUAGCAAUAUUACGCGCG as the entry. -0.327

Tell me its self-splicing fitness (ln) given GAUUAGCAAUAUUACGAGGC as the entry. -4.11

Tell me its self-splicing fitness (ln) given GCUCAGCAAUAUUACGUUCA as the entry. -0.466

Tell me its self-splicing fitness (ln) given CCUUAGCAAUAUUACGGUCC as the entry. -3.5

Tell me its self-splicing fitness (ln) given ACGGAGCAAUAUUACGUGUG as the entry. -3.92

Tell me its self-splicing fitness (ln) given UACAAGCAAUAUUACGCCUU as the entry. -0.984

* * *

- Test Protocol: self-splicing fitness, log relative to wild type (ln ratio); higher = more splicing; Tetrahymena group I intron in knt gene, E. coli kanamycin selection, DiMSum; sequences stand for … in CUCUCU…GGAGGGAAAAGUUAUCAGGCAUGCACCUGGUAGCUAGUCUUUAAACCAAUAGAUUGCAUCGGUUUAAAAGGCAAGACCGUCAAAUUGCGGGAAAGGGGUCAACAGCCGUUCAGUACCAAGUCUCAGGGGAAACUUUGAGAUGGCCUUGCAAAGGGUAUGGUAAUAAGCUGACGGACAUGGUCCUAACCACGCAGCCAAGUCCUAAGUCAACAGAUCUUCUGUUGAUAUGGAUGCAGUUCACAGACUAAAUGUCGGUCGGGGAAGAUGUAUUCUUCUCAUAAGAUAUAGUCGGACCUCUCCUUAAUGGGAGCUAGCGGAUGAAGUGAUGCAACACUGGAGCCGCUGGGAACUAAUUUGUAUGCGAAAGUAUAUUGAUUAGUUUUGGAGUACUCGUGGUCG
- Condition Description: 37 °C
Everything with self-splicing fitness (ln) lower than -2 is rule not met; everything else, including exactly -2, is rule met.

Known results for sequences:
Residue Codes: GGCGAGCAAUAUUACGGUCU
Group: rule met

Residue Codes: AUUAAGCAAUAUUACGAUUA
Group: rule met

Residue Codes: ACGUAGCAAUAUUACGCAGG
Group: rule met

Entry AUAGAGCAAUAUUACGCAUG : is its self-splicing fitness (ln) no less than -2? rule met

Entry CCCGAGCAAUAUUACGGGGU : is its self-splicing fitness (ln) no less than -2? rule not met

Entry GUCAAGCAAUAUUACGGAUG : is its self-splicing fitness (ln) no less than -2? rule met

Entry CGCGAGCAAUAUUACGAGUU : is its self-splicing fitness (ln) no less than -2? rule not met

Entry CUCAAGCAAUAUUACGUAUG : is its self-splicing fitness (ln) no less than -2? rule not met

Entry AACUAGCAAUAUUACGUAGA : is its self-splicing fitness (ln) no less than -2? rule met

Entry CGUCAGCAAUAUUACGACGU : is its self-splicing fitness (ln) no less than -2? rule met

Entry GUUAAGCAAUAUUACGCAGG : is its self-splicing fitness (ln) no less than -2? rule not met

Entry CCCCAGCAAUAUUACGAGUC : is its self-splicing fitness (ln) no less than -2? rule not met

Entry CGUCAGCAAUAUUACGAAUC : is its self-splicing fitness (ln) no less than -2? rule met

Entry AGGAAGCAAUAUUACGGGGC : is its self-splicing fitness (ln) no less than -2? rule not met

Entry GGCCAGCAAUAUUACGGAAC : is its self-splicing fitness (ln) no less than -2? rule met

src = the supplement of paper PMC7877785
